Tested on: mice (α2 -adrenergic antagonism of clonidine)
ASSAY REMARKS: In vivo Antagonism of Clonidine-induced Anti-nociception (phenyl-p-quinone writhing)
TEST CONTEXT: Mus musculus, sc, 100 mg/kg s.c., read-out: Antagonism of Clonidine Analgesia % A.
Description: The α2 -adrenergic antagonist activity is measured by three screening methods, described as follows: (3) In vivo Antagonism of Clonidine-induced Anti-nociception The intraperitoneal administration of phenyl-p-quinone (PPQ) to mice elicits a nociceptive response which consists of abdominal writhing and extension of the hind limbs. […] The number of mice that writhed at least three times during the five minute observation period was counted. […]
Please provide measured responders at 100 mg/kg for the entries that follow.
Numeric answer plus unit only.

**Q:** Consider the molecule C1=C(CC2=NCCN2)CCc2ccccc21 [Example 2(b)] and give its measured responders at 100 mg/kg.
**A:** 90%

**Q:** Next up: CC1=C(CC2=NCCN2C)CCc2ccccc21 [4(b)]
**A:** 20%

**Q:** Next up: Cc1c(CC2=NCCN2)ccc2ccccc12 [17(e)]
**A:** 70%

**Q:** Next up: CCN1CCN=C1CC1=C(C)c2ccccc2CC1 [Example 5]
**A:** 20%

**Q:** Next up: CC1=C(CC2=NC(C)CN2)CCc2ccccc21 (stereo not drawn) [Example 6]
**A:** 20%

Next:
**Q:** Consider the molecule C[C@@H]1c2ccccc2CC[C@H]1CC1=NCCN1 (relative stereo) [15(d)] and give its measured responders at 100 mg/kg.
**A:** 30%

---

ASSAYED SYSTEM: α2 -adrenergic, isolated rat vas deferens (Rattus norvegicus)
Construct: isolated, electrically stimulated rat vas deferens; from tissue; host or cells: isolated rat vas deferens
Sequence (P22909 whole entry): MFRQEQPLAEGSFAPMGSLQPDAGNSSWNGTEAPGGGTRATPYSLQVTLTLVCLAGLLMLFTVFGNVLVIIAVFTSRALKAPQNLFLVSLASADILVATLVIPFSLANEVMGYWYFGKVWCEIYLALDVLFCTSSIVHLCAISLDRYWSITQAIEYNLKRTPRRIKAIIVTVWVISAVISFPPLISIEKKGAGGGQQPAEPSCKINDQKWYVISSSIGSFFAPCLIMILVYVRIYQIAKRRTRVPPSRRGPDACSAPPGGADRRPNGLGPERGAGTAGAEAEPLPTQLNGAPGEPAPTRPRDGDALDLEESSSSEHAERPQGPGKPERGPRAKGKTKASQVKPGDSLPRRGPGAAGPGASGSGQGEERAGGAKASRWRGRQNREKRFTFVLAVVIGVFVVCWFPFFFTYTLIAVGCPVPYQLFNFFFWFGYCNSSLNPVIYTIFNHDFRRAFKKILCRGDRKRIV
ASSAY REMARKS: Vas Deferens Assay: antagonism of clonidine-induced inhibition of twitch height
Format: biochemical
TEST CONTEXT: Schild method; clonidine 10 nM; read-out: Rat Vas Deferens pA2 (converted)
MEASURE NAME: Kb (nM)
Numbers only, in nM.

Hi there! I need Kb for each item below, if you can.
1. C1=C(CC2=NCCN2)Cc2ccccc21
2. C1=C(CC2=NCCN2)CCc2ccccc21
3. C[C@@H]1c2ccccc2CC[C@@H]1CC1=NCCN1 (relative stereo)
4. CC1=C(Cc2ncc[nH]2)CCc2ccccc21
5. CC1=C(CC2=NCCN2)Cc2ccccc21

**A:**
1. 64.6
2. 17.4
3. 60.3
4. 120
5. 19.5

Hi there! I need Kb for each item below, if you can.
1. Cc1c(CC2=NCCN2)ccc2ccccc12 [17(e)]
2. CC(C1=Cc2ccccc2CC1)C1=NCCN1 (centres unmarked)
3. CC1=C(CC2=NCCN2)CCc2ccccc21

**A:**
1. 44.7
2. 37.2
3. 63.1

---

ASSAYED SYSTEM: α2 -adrenergic binding sites (receptor) (Rattus norvegicus, UniProt P22909)
Construct: to displace ^3 H-clonidine (an α2 -adrenergic agonist) from membranes of rat brain; from tissue; host or cells: rat cerebral cortex homogenate (membranes)
Sequence (P22909 whole entry): as above
ASSAY REMARKS: Tritiated Clonidine Receptor Binding Assay
TEST CONTEXT: 0.4 nM ^3 H-clonidine, rat cerebral cortex homogenate; read-out: Clonidine [^3 H] Binding Ki
Protocol: The α2 -adrenergic antagonist activity is measured by three screening methods, described as follows: (1) Tritiated Clonidine Receptor Binding Assay Affinity is determined by assessing the ability of compounds to displace ^3 H-clonidine (an α2 -adrenergic agonist) from membranes of rat brain. […] Compounds that bind to the α2 -adrenergic receptor, when added to the incubation mixture, will displace ^3 H-clonidine from its binding site, thereby diminishing the amount of bound radioactivity. […]
Please provide measured log10(Ki) for the entries that follow.
Hi team, quick reminder: these entries are log10 of Ki (nM).

**Q:** Item: C1=C(CC2=NCCN2)CCc2ccccc21 [Example 2(b)] Test system: α2 -adrenergic binding sites (receptor) (Rattus norvegicus, UniProt P22909) Read-out: log10(Ki) Value: ?
**A:** 1.45

**Q:** Next up: CC1=C(CC2=NCCN2)CCc2ccccc21 [1(b)]
**A:** 1.08

Hi there! I need log10(Ki) for each item below, if you can.
1. CC1=C(Cc2ncc[nH]2)CCc2ccccc21 [Example 11]
2. C[C@@H]1c2ccccc2CC[C@H]1CC1=NCCN1 (relative stereo) [15(d)]
3. C[C@@H]1c2ccccc2CC[C@@H]1CC1=NCCN1 (relative stereo) [Example 16]
4. CC1=C(CC2=NCCCN2)CCc2ccccc21 [Example 3]

**A:**
[1.94, 2.60, 2.13, 2.52]

Hi there! I need log10(Ki) for each item below, if you can.
1. CC1=C(CC2=NCCN2)Cc2ccccc21 [9(b)]
2. Cc1c(CC2=NCCN2)ccc2ccccc12 [17(e)]
3. C1=C(CC2=NCCN2)Cc2ccccc21 [10(b)]
4. CC(C1=Cc2ccccc2CC1)C1=NCCN1 (centres unmarked) [7(b)]
5. CCN1CCN=C1CC1=C(C)c2ccccc2CC1 [Example 5]

**A:**
0.85
0.85
1.88
1.51
2.74
